Measured values drawn from PubChem BioAssay (NCATS) for this set.

biological target: 3',5'-cyclic-AMP phosphodiesterase 4B (Homo sapiens) (UniProt Q07343); experiment: qHTS Assay for Inhibitors of PDE-IV (AID 607); settings: HEK293 ACTOne CNG channel cells, membrane potential fluorescence; series mostly up to 22.9 µM
Sequence (Q07343 whole entry, looked up): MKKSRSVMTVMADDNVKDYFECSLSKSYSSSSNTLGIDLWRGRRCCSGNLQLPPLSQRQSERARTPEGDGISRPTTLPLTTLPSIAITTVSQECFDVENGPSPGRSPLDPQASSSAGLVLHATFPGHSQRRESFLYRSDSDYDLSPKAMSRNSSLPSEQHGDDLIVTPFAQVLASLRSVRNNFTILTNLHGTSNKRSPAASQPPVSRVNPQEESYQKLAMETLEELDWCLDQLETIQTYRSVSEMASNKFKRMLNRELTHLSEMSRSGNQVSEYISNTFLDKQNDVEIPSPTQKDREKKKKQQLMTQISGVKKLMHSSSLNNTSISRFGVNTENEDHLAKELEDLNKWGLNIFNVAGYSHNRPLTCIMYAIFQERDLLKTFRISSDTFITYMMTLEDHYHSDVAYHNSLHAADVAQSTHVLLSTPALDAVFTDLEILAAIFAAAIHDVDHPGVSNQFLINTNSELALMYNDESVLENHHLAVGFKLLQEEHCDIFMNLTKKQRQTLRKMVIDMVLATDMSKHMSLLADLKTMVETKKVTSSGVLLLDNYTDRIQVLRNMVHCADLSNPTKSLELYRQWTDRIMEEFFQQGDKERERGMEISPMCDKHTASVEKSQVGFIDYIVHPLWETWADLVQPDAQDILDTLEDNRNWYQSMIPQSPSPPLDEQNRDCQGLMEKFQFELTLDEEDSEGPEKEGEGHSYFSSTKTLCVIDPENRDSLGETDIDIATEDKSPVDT
Results filed as inconclusive are left out. Calls of active or inactive are those of the source. Calls come from the whole dose curve; as a rule, active = well fitted activation curve with a large enough effect in the main read-out, with a control signal flat (not every such curve was filed as active); inconclusive = small, poorly fitted or top-dose-only effect, or effect the other way, or a change in a side signal; inactive = flat fitted curve, though single readings scatter.
valueKind: outcome

structureAsSmiles: NCCC(=O)NCCc1cnc[nH]1
dataValue: inactive
--
structureAsSmiles: COc1ncc2nc(-c3ccc(F)cc3)c(=O)n(-c3ccccc3)c2n1
dataValue: inactive
--
structureAsSmiles: COc1ccc2c(c1)c(CC(=O)O)c(C)n2Cc1ccc(F)cc1
dataValue: inactive
--
structureAsSmiles: COc1ccc(Oc2ncc3nc(-c4cn(C)c5ccccc45)c(=O)n(C4CC4)c3n2)cc1
dataValue: inactive
--
structureAsSmiles: O=C(Nc1ccccc1)N1CC[C@@]2(CCCN(C(=O)c3cnccn3)C2)C1
dataValue: inactive
--
structureAsSmiles: O=C(Oc1ccccc1)N1CCC2(CC1)CCN(c1ncccn1)CC2
dataValue: inactive
--
structureAsSmiles: CC(=O)NCCNc1ccnc(-c2ccccc2C(F)(F)F)n1
dataValue: inactive
--
structureAsSmiles: Cc1nc2cnc(N3CCNCC3)nc2n(Cc2cccs2)c1=O
dataValue: inactive
--
structureAsSmiles: O=C(c1cc(C(F)(F)F)cc(C(F)(F)F)c1)N1CCC2(CCN(Cc3nccs3)CC2)CC1
dataValue: inactive
--
structureAsSmiles: O=C(c1ccncc1)N1CCC2(CC1)CN(c1cccc(-c3ccccc3)c1)C2
dataValue: inactive
--
structureAsSmiles: CNc1ccnc(-c2ccccc2CN(C)C)n1
dataValue: inactive
--
structureAsSmiles: Cc1nc2cnc(Nc3ccccc3)nc2n(C2CC2)c1=O
dataValue: inactive
--
structureAsSmiles: N#CCCn1c(=O)c(CCc2ccccc2)nc2cnc(Oc3cccc(Cl)c3)nc21
dataValue: inactive
--
structureAsSmiles: NC(=NCCC[C@H](N)C(=O)O)NO
dataValue: inactive
--
structureAsSmiles: CS(=O)(=O)N1CCC2(CCN(C(=O)Nc3cccc(F)c3)CC2)CC1
dataValue: inactive
--
structureAsSmiles: COc1ccc(CNc2ncncc2-c2cccnc2)c(OC)c1
dataValue: inactive
--
structureAsSmiles: CS(=O)(=O)N1CCC[C@@]2(CCN(c3ccccc3)C2)C1
dataValue: inactive
--
structureAsSmiles: c1ccc(-c2cccc(N3CC4(CCNCC4)C3)c2)cc1
dataValue: inactive
--
structureAsSmiles: CNc1nc(-c2ccc3c(c2)OCO3)nc2ccccc12
dataValue: inactive
--
structureAsSmiles: O=c1cnc2cnc(N3CCNCC3)nc2n1Cc1cccs1
dataValue: inactive
--
structureAsSmiles: COCCn1c(=O)c(-c2ccc(Cl)cc2)nc2cnc(OC)nc21
dataValue: inactive
--
structureAsSmiles: COCCn1c(=O)cnc2cnc(OC)nc21
dataValue: inactive
--
structureAsSmiles: O=c1c(-c2cccs2)nc2cnc(N3CCOCC3)nc2n1Cc1cccs1
dataValue: inactive
--
structureAsSmiles: O=C(c1cnccn1)N1CCC[C@@]2(CCN(c3ncccn3)C2)C1
dataValue: inactive
